System: HCV GT1b replicon cells
Assay: HCV Replicon assay, GT1b replicon cells (Luciferase / NEO qPCR)
Assay type: cell-based
Details: Hepatitis C virus, 72 hours incubation, read-out: EC50 against HCV 1b genotype
quantity-kind: EC50 (nM)
Value expressed in nM; do not type the unit.

The following compounds have reported results that may help.
{"compound": "COC(=O)N[C@H](C(=O)N1CCC[C@H]1C(=O)Nc1cccc(-c2ccc(-c3ccc(-c4cnc([C@@H]5CCCN5C(=O)[C@@H](NC(=O)OC)C(C)C)[nH]4)cc3)c3c2CCC32CCCC2)c1)C(C)C [Example 34]", "system-tested": "HCV GT1b replicon cells", "quantity-kind": "EC50", "unit": "nM", "measured-number": 0.017}
{"compound": "COC(=O)N[C@H](C(=O)N1CCC[C@H]1c1ncc(-c2ccc(-c3ccc(-c4cnc([C@@H]5CCCN5C(=O)[C@@H](NC(=O)OC)C(C)C)[nH]4)c4c3C3(CC4)CCN(C)C3)cc2)[nH]1)C(C)C (stereo partly shown) [Example 48]", "system-tested": "HCV GT1b replicon cells", "quantity-kind": "EC50", "unit": "nM", "measured-number": 0.24}
{"compound": "COC(=O)N[C@H](C(=O)N1CCC[C@H]1c1ncc(-c2ccc(-c3ccc(-c4ccc5nc([C@@H]6CCCN6C(=O)[C@@H](NC(=O)OC)C(C)C)[nH]c5c4)c4c3CCCC43CCC3)s2)[nH]1)C(C)C [Example 41]", "system-tested": "HCV GT1b replicon cells", "quantity-kind": "EC50", "unit": "nM", "measured-number": 0.043}

Given the compound COC(=O)N[C@H](C(=O)N1CCC[C@H]1c1ncc(-c2ccc(-c3ccc(-c4cnc([C@@H]5CCCN5C(=O)[C@@H](NC(=O)OC)C(C)C)[nH]4)c4c3C3(CCC4)CCN(C)C3)cc2)[nH]1)C(C)C (stereo partly shown) [Example 50] and test system HCV GT1b replicon cells, the measured EC50 is 0.096
